protocolNotes: yeast display, Sf9 membrane polyspecificity reagent, FACS + sequencing; frameworks hold sequencing errors

| residueString | polyreactivity (PSR sort gate) |
| --- | --- |
| QVQLVESGGGLVQAGASLRLSCAASGSTSYPYAMGWYRQAPWKEREFVAAITRSGGSTYYADSVKGRYTISRDNAKNTVYLQMNSLKPEDTAFYYCAARRYYFTDWYRRYDYWGQGTQVTVSS | high polyreactivity |
| QVQLVESGGGLFKAGGSLRLSCAASGFNFSNYAKGWYRQAPGKERELVATISWSGGRTYYADSVKGRFTISRDNAKNTVYLQMNSLKPEDTEVYYCAAEYYTGYFKYDYWGQGTQVTVSS | high polyreactivity |

* * *

protocolNotes: yeast display, Sf9 membrane polyspecificity reagent, FACS + sequencing; frameworks hold sequencing errors
quantity: polyreactivity (PSR sort gate)

Example results:
| residueString | polyreactivity (PSR sort gate) |
| --- | --- |
| QVQLVESGGGLVQAGGSLRLICAASGRTFSFYARVWYRQAPGKETEFVAAITGSGGSTYYADSVKGRFTISRDNAKNTVYLKMNSLKPEDTAVYYCAKRSAWHTYRYGYWGQGTQVTVSS | high polyreactivity |
| QVQLVESGGGLVQAGGSLRLSCAASGRIFWVNVMGRYIQAPGKERELVPAITRGASTYADSVKGRFTISRDNAKNTVYLQMNSLKPEDTAVYYCAADTKRRSIRYDYWGEGTQVTVSS | high polyreactivity |
| QVKLVESGGGLVQAGGRLRLTCAASGSTISGYAMGWYRQAPGKERQLVATITGGGRTYYADSVKGRFTISRDNAKNTVYLQMNSLKPEDSAVYYFAVRGYHQYKYGYWGQGTQVTVSS | high polyreactivity |
| QVQLVESGGGLVQAGGSLRLSCAASGFTFYNYAMGWYRQAPGKERELVAAITSRGGSTYYADSVKGRFTISRDYAKNTVYLQMNSLKPEDTAVYYCNAVAKLYYWRYDYWGQGTQVTVSS | low polyreactivity |

Next up:
Which polyreactivity (PSR sort gate) value belongs to "QVQLVESGGGLVQAGGSLRLSCAASGFTFGPYDMGWYRQAPGTERELVAAITDSSGSTHYADSVKGRFTLSRDNAKNTFYLQMNSLKPEDTAVYYCAADVSSRTTYDYWGQGTQVTVSS" ?
low polyreactivity

* * *

protocolNotes: yeast display, Sf9 membrane polyspecificity reagent, FACS + sequencing; frameworks hold sequencing errors
quantity: polyreactivity (PSR sort gate)

# count of solved cases: 5
| residueString | polyreactivity (PSR sort gate) |
| --- | --- |
| QVQLVESGGGLVQAGGSHRLSCAASGRIFAHNAMGWYSQAPGKERELVAAITWSGGSTYYADSVKGRFTISRDNAKNTVYLQMNSLKPEDTAVYYCNTDSHGHLYNYWGQGTQVTVSS | low polyreactivity |
| QVQLVESGGGLVQAGGSLRLSCAASGSIIGSYAMGWYRQAPGKERELVAAINSGGSTNYADSVKGRFTISRDNAKNTVYLQMNSLKPEDTAVYYCASRQVYKFRRYDYWGQGTQVTVSS | high polyreactivity |
| QVQIVESGGGLVQAGGSLRLSCAASGSTFNYNAMGWYRQAPGKERELVAAITFTGGSTYADSVKGRFTISRDNAKNTVYLQMNSLKPEDTAVYYCAATIQGHDYLGTGYDYWGQGTQVTVSS | low polyreactivity |
| QVQLVESGGGLVQAGGSLRLSCAASGHIFFYYTMGWYRQAPGKERELVAGITIGGSTNYADSVKGRFTISRDNAKNTVYLKMNSLKPEDTAVYYCNVVKYVYIYSYWEYYYWGQGTQVTVSS | low polyreactivity |
| QVQHVESGGGLVQAGGSLRLSCASSGRIFYFYAMGWYRQAPGKLRELVAAISTSGGSTYYADSVKGRFKISRDNATNTVYLQMNSLKPEDPAVYYCAGRFRYYGSEYDYWGQGTQVTVSS | low polyreactivity |

Would you mind telling me what polyreactivity (PSR sort gate) value was observed for "QVQLVESGGGLVQAGGSLRLSCAASGSILSFYAMGWYRQAPGKERELVATISRRGGSTYYADSVKGRFTISRDNAKNTVYLQMNSLKPEDTAVYYCNKPGLSAWTQSSQYEYDYWGQGTQVTVSS" ?
high polyreactivity

For "QVQLQESGGGLVQAGGSLRLSCAASGYISTFSSEMGWYRQAPGKERELVASIAPGCTTSYADSVKGRFTISRDNAKNTVYLQMNSLKPEDTAVYYCAVGNGLSRYVYGDYDYWGQGTQVTVSS" , what is its reported polyreactivity (PSR sort gate)?
high polyreactivity

GET /values?readout=polyreactivity (PSR sort gate)&item= "QVQLVESGGGLVQAGGSLRLSCASSGRTFRYYAKGWYRQAPGKERELVATISSGGSTNYADSVKGRFTISRDNAKNTVYFQMNSLKPEDTAVYYCAAAKYVTYLSIYYYWGQGTQVTVSS"
high polyreactivity

Which polyreactivity (PSR sort gate) is listed for "QVQLVESGGGLVQAGGSLRLSCAASGSTFPRYAMGWFRQAPGKEREFVAAISRRGGSTYYADSVKGRFTISRDNAKNTVYLQMNSLKPEDTAVYYCANRVRTGSVGNFNYWGQGTQVTVSS" ?
high polyreactivity

Given the entry "QVQLVESGGGLVQAGGSLRLSCAASGSIFRYYAMGWSRQAPGKERELVAAISRRGSSTYYADSVKGRFTISRDNAKKTVYLQMNSLKPEDTAVYYCAAGDFKQYDYWGQGTQVTVSS" , report its measured polyreactivity (PSR sort gate).
high polyreactivity

Fill blank: measured polyreactivity (PSR sort gate) of the sequence "QVQLVESGGGLVQAGGSLRLSCAASGSIFFPYAMGWYRQAPGKEREFVAAITGSGTSTYYADSVKGRFTISRDNAKNTVYLQMNSLKPEDTAVYYCNAKRDRYFYTVKYDYWGQGTQVTVSS" is ____.
low polyreactivity

Sourced from the nanobody polyreactivity screen of Harvey et al. (2022)
